Biological target: D(1A) dopamine receptor (Homo sapiens, UniProt P21728); further: assay procedure not described here
Sequence (P21728 whole entry): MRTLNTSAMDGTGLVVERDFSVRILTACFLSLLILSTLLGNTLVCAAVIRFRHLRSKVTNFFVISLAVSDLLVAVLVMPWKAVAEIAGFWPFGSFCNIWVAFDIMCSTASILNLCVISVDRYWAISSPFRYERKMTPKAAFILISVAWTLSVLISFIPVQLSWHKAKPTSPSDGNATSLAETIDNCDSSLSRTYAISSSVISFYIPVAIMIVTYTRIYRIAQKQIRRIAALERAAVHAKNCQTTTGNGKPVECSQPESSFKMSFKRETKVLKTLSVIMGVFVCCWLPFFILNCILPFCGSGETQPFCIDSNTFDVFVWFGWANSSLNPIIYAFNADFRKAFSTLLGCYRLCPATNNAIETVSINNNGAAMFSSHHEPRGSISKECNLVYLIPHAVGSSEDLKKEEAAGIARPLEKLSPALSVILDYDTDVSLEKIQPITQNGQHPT
Type: functional, cell-based
Recorded AC50 for the following compounds

As a guide, the following entries are already answered.
>  <molecule>
CC(C)(N)Cc1ccccc1

>  <AC50>
> 10 µM

$$$$
>  <molecule>
OCCN(CCO)c1nc(N2CCCCC2)c2nc(N(CCO)CCO)nc(N3CCCCC3)c2n1

>  <AC50>
> 30 µM

$$$$
>  <molecule>
CCN(CC)CCCN(c1ccccc1)C1Cc2ccccc2C1

>  <AC50>
> 30 µM

$$$$
>  <molecule>
NCCCNCCSP(=O)(O)O

>  <AC50>
> 30 µM

$$$$
>  <molecule>
C[C@]12C=CC(=O)C=C1CC[C@@H]1[C@@H]2[C@@H](O)C[C@@]2(C)[C@H]1CC[C@]2(O)C(=O)CO

>  <AC50>
> 10 µM

$$$$
>  <molecule>
Nc1ccc(S(=O)(=O)Nc2ncccn2)cc1

>  <AC50>
> 10 µM

$$$$
>  <molecule>
O=C(O)[C@H]1/C(=C/CO)O[C@@H]2CC(=O)N21

>  <AC50>
> 30 µM

$$$$
>  <molecule>
CC(=O)OCC1=C(C(=O)O)N2C(=O)[C@@H](NC(=O)CSc3ccncc3)[C@H]2SC1

>  <AC50>
> 10 µM

$$$$

// next item, AC50 requested
// AC50 lookup, key: `Cc1cnc(Nc2ccc(OCCN3CCCC3)cc2)nc1Nc1cccc(S(=O)(=O)NC(C)(C)C)c1`
> 10 µM
